Listed below: selectivity ratio values for each entry.
Test: Selectivity index, ratio of CC50 for cytotoxicity against human MRC5 cells to IC50 for antiplasmodial activity against chloroquine-resistant plasmodium falciparum K1
Format: toxicity, cell-based
Settings: read-out: Ratio CC50/IC50

1) CC1(C)CC[C@]2(C(=O)O[C@@H]3O[C@H](CO)[C@@H](O)[C@H](O)[C@H]3O)CC[C@]3(C)C(=CC(=O)[C@@H]4[C@@]5(C)C[C@@H](O)[C@H](O)[C@@](C)(CO)[C@@H]5CC[C@]43C)[C@@H]2[C@@H]1O; > 4.6
2) CC1(C)CC[C@]2(C(=O)O[C@@H]3O[C@H](CO)[C@@H](O)[C@H](O)[C@H]3O)CC[C@]3(C)C(=CC(=O)[C@@H]4[C@@]5(C)C[C@@H](O)[C@H](O)[C@@](C)(CO)[C@@H]5CC[C@]43C)[C@@H]2[C@H]1O; > 5.7
3) CC1(C)CC[C@]2(C(=O)O)CC[C@]3(C)C(=CC(=O)[C@@H]4[C@@]5(C)C[C@@H](O)[C@H](O)[C@@](C)(CO)[C@@H]5CC[C@]43C)[C@@H]2[C@H]1O; > 6.3
4) C[C@]1(CO)CC[C@]2(C(=O)O)CC[C@]3(C)C(=CC[C@@H]4[C@@]5(C)C[C@@H](O)[C@H](O)[C@@](C)(CO)[C@@H]5CC[C@]43C)[C@@H]2C1; > 1.31

# context switch: different compound, same selectivity ratio
Qu. Please look at this compound and report its selectivity ratio: CC1(C)C=C2C3=CC(=O)[C@@H]4[C@@]5(C)C[C@@H](O)[C@H](O)[C@@](C)(CO)[C@@H]5CC[C@@]4(C)[C@]3(C)CC[C@@]2(C(=O)O)CC1
Ans. > 9.27

---

Assay: Selectivity index, ratio of CC50 for cytotoxicity against human MRC5 cells to IC50 for antiplasmodial activity against chloroquine-resistant plasmodium falciparum K1
Assay type: toxicity, cell-based
Conditions: read-out: Ratio CC50/IC50
Listed below: selectivity ratio values for each entry.

Qu. Please look at this compound and report its selectivity ratio: CC1(C)CC[C@]2(C(=O)O[C@@H]3O[C@H](CO)[C@@H](O)[C@H](O)[C@H]3O)CC[C@]3(C)C(=CC(=O)[C@@H]4[C@@]5(C)C[C@@H](O)[C@H](O)[C@](C)(CO)[C@@H]5CC[C@]43C)[C@@H]2[C@H]1O
Ans. > 7

Qu. Please look at this compound and report its selectivity ratio: CC1(C)CC[C@]2(C(=O)O)CC[C@]3(C)C(=CC(=O)[C@@H]4[C@@]5(C)C[C@@H](O)[C@H](O)[C@](C)(CO)[C@@H]5CC[C@]43C)[C@@H]2[C@@H]1O
Ans. > 10.5

Qu. Please look at this compound and report its selectivity ratio: CC1(C)CC[C@]2(C(=O)O)CC[C@]3(C)C(=CC(=O)[C@@H]4[C@@]5(C)C[C@@H](O)[C@H](O)[C@](C)(CO)[C@@H]5CC[C@]43C)[C@@H]2[C@H]1O
Ans. > 10.5
